- SYSTEM UNDER TEST: glucose dehydrogenase containing the sortase-motif LPXTG
- ASSAY TEXT: cell-based or functional assay
Each entry below carries its recorded maximum dE/min.
MEASURED ATTRIBUTE: maximum dE/min

1) Listeria monocytogenes Sortase A variant B (enzyme) SVIKGAANYDKDAVVGSIAVPSVDVNLLVFKGTNTANLLAGATTMRSDQVMGKGNYPLAGHHMRDESMLFGPIMKVKKGDKIYLTDLENLYEYTVTETKTIDETEVSVIDDTKDARITLITCDKPTETTKRFVAVGELEKTEKLTKELENKYFPSKMRGSHHHHHHGS	0.026 dE/min
2) Listeria monocytogenes Sortase A variant D (enzyme) ANYDKDAVVGSIAVPSVDVNLLVFKGTNTANLLAGATTMRSDQVMGKGNYPLAGHHMRDESMLFGPIMKVKKGDKIYLTDLENLYEYTVTETKTIDETEVSVIDDTKDARITLITCDKPTETTKRFVAVGELEKTEKMRGSHHHHHHGS	0.044 dE/min
3) Listeria monocytogenes Sortase A variant E (enzyme) GSIAVPSVDVNLLVFKGTNTANLLAGATTMRSDQVMGKGNYPLAGHHMRDESMLFGPIMKVKKGDKIYLTDLENLYEYTVTETKTIDETEVSVIDDTKDARITLITCDKPTETTKRFVAVGELEKTEKLTKELENKYFPSKMRGSHHHHHHGS	0.019 dE/min
4) Listeria monocytogenes Sortase A variant C (enzyme) ANYDKDAVVGSIAVPSVDVNLLVFKGTNTANLLAGATTMRSDQVMGKGNYPLAGHHMRDESMLFGPIMKVKKGDKIYLTDLENLYEYTVTETKTIDETEVSVIDDTKDARITLITCDKPTETTKRFVAVGELEKTEKLTKELENKYFPSKMRGSHHHHHHGS	0.113 dE/min
5) Listeria monocytogenes Sortase A variant A (enzyme) EKDATFDFESVQLPSMTSVIKGAANYDKDAVVGSIAVPSVDVNLLVFKGTNTANLLAGATTMRSDQVMGKGNYPLAGHHMRDESMLFGPIMKVKKGDKIYLTDLENLYEYTVTETKTIDETEVSVIDDTKDARITLITCDKPTETTKRFVAVGELEKTEKLTKELENKYFPSKMRGSHHHHHHGS	0.037 dE/min

Source listed as patent US20180216091A1.
